# test.summary: qHTS profiling of the MIPE4 collection as inhibitors of Plasmodium falciparum (HB3) proliferation (AID 743347);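 further: plate controls were DMSO vehicle wells for no effect and artemisinin wells for full effect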
# particulars: P. falciparum HB3 in erythrocytes, SYBR Green DNA, 72 h; at 28.5 µM (top of the series) unless noted
# Procedure: Plasmodium falciparum is a virulent malarial parasite that kills 1-2 million people worldwide each year. […] Because mature erythrocytes lack DNA, only Plasmodium-derived DNA is detected. The SYBR Green viability assay was adapted from a method described previously (Plouffe et al., 2008). […] The following morning, fluorescence intensity at 485(14) nm excitation and 535(25) nm emission wavelengths was measured on an EnVision (Perkin Elmer) plate reader. […]
observable: growth, % of control (%)
One number for each entry, in %.

The following molecules have reported results that may help.
INSERT INTO measurements (smiles_text, observable, quantitative_readout) VALUES
  ('CCOC(=O)C1=C(C)NC(C)=C(C(=O)OCC)C1c1ccccc1C=CC(=O)OC(C)(C)C', 'growth, % of control', 11.8),
  ('C[C@@H]1CCN(C(=O)CC#N)C[C@@H]1N(C)c1ncnc2[nH]ccc12', 'growth, % of control', 96.8),
  ('CC(C)N=c1cc2n(-c3ccc(Cl)cc3)c3ccccc3nc-2cc1Nc1ccc(Cl)cc1', 'growth, % of control', 47.5);

Moving on to another molecule below.
Problem: What does the record list as growth, % of control for `C=C1C(=CC=C2CCC[C@@]3(C)[C@@H]2CC[C@H]3[C@H](C)CCCC(C)C)C[C@@H](O)C[C@@H]1O` ?
Solution: 19.8

----------
# test.summary: Confirmation and Secondary Assay for Modulators of Hemoglobin Beta Chain Splicing at IVS2 654 locus (AID 910);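 further: HeLa cells stably carrying EGFP split by mutant beta-globin IVS2-654 intron; per-well total GFP intensity by laser scanning cytometry after 2-day treatment; % of control where 0% means no effect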
# particulars: HeLa EGFP-654 splicing reporter, GFP fluorescence, 48 h; series mostly up to 46.1 µM
Calls of active or inactive are those of the source. Calls follow the shape of the dose curve; as a rule, active = well fitted activation curve with a large enough effect; inconclusive = small, poorly fitted or top-dose-only effect; inactive = flat fitted curve, though single readings scatter.
observable: outcome

Below: 5 molecules and their reported outcome.
INSERT INTO results (molecule, result) VALUES
  ('Oc1cc(O)c2c(c1)OC(c1ccc(O)c(O)c1)C(O)C2 (stereo not given)', 'inactive'),
  ('CCCC(=O)Nc1ncnc2c1ncn2C1OC2COP(=O)(O)OC2C1OC(=O)CCC (stereo not given)', 'inactive'),
  ('CCOc1ccc2c(c1)C(C)=CC(C)(C)N2', 'inactive'),
  ('CC1=C(/C=C/C(C)=C/C=C/C(C)=C/C=C/C=C(C)/C=C/C=C(C)/C=C/C2=C(C)C(=O)CCC2(C)C)C(C)(C)CCC1=O', 'inactive'),
  ('CN1Cc2c(N)cccc2C(c2ccccc2)C1 (stereo not given)', 'inactive');

For each entry beneath this line, provide reported outcome.
1. Nc1c(Br)cc(Br)cc1CNC1CCC(O)CC1 (stereo not given)
2. CCC(=O)NCCC1CCc2ccc3c(c21)CCO3 (stereo not given)
3. O=C(O)CN(CCN(CC(=O)O)CC(=O)O)CC(=O)O
4. CC1=C(/C=C/C(C)=C/C=C/C(C)=C/CO)C(C)(C)CCC1
5. CC(C(=O)O)c1ccc(N2Cc3ccccc3C2=O)cc1 (stereo not given)

Solution:
1. inactive
2. inactive
3. inactive
4. inactive
5. inactive

----------
# Tested on: 7G8
# test.summary: qHTS profiling for inhibitors of Plasmodium falciparum proliferation (AID 504749); further: nearly all actives have a fitted effect of over 60% in size
# particulars: P. falciparum in erythrocytes, SYBR Green DNA, 72 h; series mostly up to 28.7 µM
Records with an inconclusive call do not appear. Calls of active or inactive are those of the source. Calls come from the whole dose curve; as a rule, active = well fitted inhibition curve with a large enough effect; inconclusive = small, poorly fitted or top-dose-only effect; inactive = flat fitted curve, though single readings scatter.
Response enum: class 1 = active, class 0 = inactive

INSERT INTO assay_data (compound, assigned_class) VALUES
  ('COC(=O)[C@H]1[C@H]2C[C@@H]3c4[nH]c5ccccc5c4CCN3C[C@H]2C[C@@H](OC(=O)c2cc(OC)c(OC)c(OC)c2)[C@@H]1OC', 'class 1');

Problem: Give the logged outcome of this assay for the following compound: `CCCCC/C=C\C/C=C\CCCCCCCC(=O)O`
Solution: class 0

Problem: And for `Cc1c(C)c2c(c(C)c1O)CC[C@@](C)(CCC[C@H](C)CCC[C@H](C)CCCC(C)C)O2` ?
Solution: class 0

Problem: Let us now turn to CCCCCC(CC)COC(=O)CC(C(=O)OCC(CC)CCCC)S(=O)(=O)O (stereo not drawn)
Solution: class 0

Problem: And what about the compound `CO[C@H]1C[C@@H]2CC[C@@H](C)[C@@](O)(O2)C(=O)C(=O)N2CCCC[C@H]2C(=O)O[C@H]([C@H](C)C[C@@H]2CC[C@@H](OCCO)[C@H](OC)C2)CC(=O)[C@H](C)/C=C(\C)[C@@H](O)[C@@H](OC)C(=O)[C@H](C)C[C@H](C)/C=C/C=C/C=C/1C` ?
Solution: class 1

Problem: Queued: `O=C(O)c1cc(=O)c2c3nc4ccccc4oc-3cc(=O)c2[nH]1`
Solution: class 1

Problem: Lookup `C#C[C@]1(O)CC[C@H]2[C@@H]3CCC4=CCCC[C@@H]4[C@H]3C(=C)C[C@@]21CC`
Solution: class 0

Problem: Now consider `CCCCCCCCCCCCCC[n+]1ccc(C)cc1` and answer again.
Solution: class 1

----------
# test.system: Glutathione peroxidase 1 (Homo sapiens)
# test.summary: Primary qHTS Assay for Inhibitors of Recombinant Selenoprotein Glutathione Peroxidase 1 (GPX1) (AID 1845191); further: on the % scale 0 is the no-effect control and ±100 the full control effect; nearly all actives have a fitted effect of over 65% in size
# particulars: recombinant GPX1, GR-coupled NADPH fluorescence, 15 min; series mostly up to 48.8 µM
Results filed as inconclusive are left out. Active and inactive are the calls of the source. Calls follow the shape of the dose curve; as a rule, active = well fitted inhibition curve with a large enough effect; inconclusive = small, poorly fitted or top-dose-only effect; inactive = flat fitted curve, though single readings scatter.
observable: activity, negative = inhibition

INSERT INTO measurements (molecule, result) VALUES
  ('CC(C)(C)NCc1cc(Nc2ccnc3cc(Cl)ccc23)c2c(c1O)CCCC2', '-7.83% [at 0.4 µM] (inactive)'),
  ('CC(=O)O[C@H]1CC[C@@]2(CI)C(=CC[C@@H]3[C@@H]2CC[C@]2(C)[C@@H]([C@H](C)CCCC(C)C)CC[C@@H]32)C1', '1.81% [at 9.52 µM] (inactive)'),
  ('CC1(C)CC2C3=CCC4C5(C)CCC(OC6OC(CO)C(O)C(OC7OC(CO)C(O)C(OC8OC(CO)C(O)C(OC9OC(COC%10OC(CO)C(O)C(O)C%10O)C(O)C(O)C9O)C8O)C7O)C6O)C(C)(C)C5CCC4(C)C3(C)CCC2(C(=O)O)CC1O (stereo not drawn)', '-11.7% [at 9.52 µM] (inactive)');

Go through the list and state activity, negative = inhibition for each entry.
1. CNC(=O)[C@H]1O[C@@H](n2cnc3c(NCc4ccc(N)c(I)c4)ncnc32)[C@H](O)[C@@H]1O
2. CC1OC(OC2C(CO)OC(OCC3OC(OC(=O)C45CCC(C)(C)CC4C4=CCC6C7(C)CCC(OC8OC(C(=O)O)C(O)C(OC9OC(CO)C(O)C(O)C9O)C8O)C(C)(C)C7CCC6(C)C4(C)CC5)C(O)C(O)C3O)C(O)C2O)C(O)C(O)C1O (stereo not drawn)
3. C/C=C(\C)C(=O)O[C@@H]1CC2[C@@H](CC=C3C[C@@H](O[C@H]4C[C@H](OC)[C@H](O[C@H]5C[C@H](OC)[C@H](O[C@H]6C[C@H](OC)[C@H](O[C@H]7C[C@@H](OC)[C@H](O[C@@H]8O[C@H](CO)[C@@H](O)[C@H](O)[C@H]8O)[C@@H](C)O7)[C@@H](C)O6)[C@@H](C)O5)[C@@H](C)O4)CC[C@@]32C)[C@@]2(O)CC[C@H](C(C)=O)[C@@]12C (stereo partly drawn)

Solution:
["3.67% [at 9.52 µM] (inactive)", "-12.7% [at 9.52 µM] (inactive)", "-14% [at 9.52 µM] (inactive)"]

Give one value of activity, negative = inhibition per listed molecule.
1. C[C@@H]1O[C@@H](O[C@H]2[C@H](OC(=O)[C@]34CCC(C)(C)C[C@H]3C3=CCC5[C@@]6(C)C[C@H](O)[C@H](O[C@@H]7O[C@H](CO)[C@@H](O[C@@H]8O[C@H](CO)[C@@H](O)[C@H](O)[C@H]8O)[C@H](O)[C@H]7O)[C@@](C)(CO)C6[C@H](O)C[C@@]5(C)[C@]3(C)C[C@H]4O)OC[C@H](O)[C@@H]2O)[C@H](O)[C@H](O)[C@H]1O[C@@H]1OC[C@@H](O)[C@H](O[C@@H]2OC[C@](O)(CO)[C@H]2O)[C@H]1O (stereo partly drawn)
2. CC1(C)C[C@H]2C3=CCC4[C@@]5(C)CC[C@H](O[C@H]6O[C@H](C(=O)O)[C@@H](O)[C@H](O)[C@H]6O[C@H]6O[C@H](CO)[C@@H](O)[C@H](O)[C@H]6O[C@@H]6O[C@H](CO)[C@@H](O)[C@H](O)[C@H]6O)[C@](C)(CO)C5CC[C@@]4(C)[C@]3(C)CC[C@@]2(C)[C@H](O[C@@H]2OC[C@H](O)[C@H](OC3O[C@H](CO)[C@@H](O)[C@H](O)[C@H]3O)[C@H]2O)[C@@H]1O (stereo partly drawn)

Solution:
["-19.6% [at 9.52 µM] (inactive)", "0.367% [at 9.52 µM] (inactive)"]
